Measured TGI by item
Tested on: KM12 colon
Assay Name: NCI tumour cell line growth inhibition, 48 h
Readout Name: TGI

>>> measured("N#Cc1c(NC(=S)NC(=O)c2ccccc2)nc2c(c1-c1ccccc1)CCCC2")
"> 100 µM"
>>> measured("COc1cccc(NC(=O)CC(=O)N2N=C(C)C(N=Nc3ccc(S(=O)(=O)c4ccc(N=NC5C(=O)N(C(=O)CC(=O)Nc6cccc(OC)c6)N=C5C)cc4)cc3)C2=O)c1 (stereo not given)")
"> 100 µM"
>>> measured("CNC(=S)N/N=C/c1cccc(C)n1")
"> 100 µM"
>>> measured("C=CC[C@H](C)CCC(=O)N1[C@H]2CC3CC[C@@]2(CS1(=O)=O)C3(C)C")
"> 100 µM"
>>> measured("C1=C\\CCCCN2C[C@H]3CCCC/C=C\\CCCCN4CC[C@@H]([C@H](CCCCCC/1)C4)[C@H](C3)C2")
"4.03 µM"
